Biological target: human ether-à-go-go-related gene (hERG) potassium channel (human);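 further: peak tail current of the secondary pulse compared with the same well before compound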
Sequence (Q12809 whole entry, looked up): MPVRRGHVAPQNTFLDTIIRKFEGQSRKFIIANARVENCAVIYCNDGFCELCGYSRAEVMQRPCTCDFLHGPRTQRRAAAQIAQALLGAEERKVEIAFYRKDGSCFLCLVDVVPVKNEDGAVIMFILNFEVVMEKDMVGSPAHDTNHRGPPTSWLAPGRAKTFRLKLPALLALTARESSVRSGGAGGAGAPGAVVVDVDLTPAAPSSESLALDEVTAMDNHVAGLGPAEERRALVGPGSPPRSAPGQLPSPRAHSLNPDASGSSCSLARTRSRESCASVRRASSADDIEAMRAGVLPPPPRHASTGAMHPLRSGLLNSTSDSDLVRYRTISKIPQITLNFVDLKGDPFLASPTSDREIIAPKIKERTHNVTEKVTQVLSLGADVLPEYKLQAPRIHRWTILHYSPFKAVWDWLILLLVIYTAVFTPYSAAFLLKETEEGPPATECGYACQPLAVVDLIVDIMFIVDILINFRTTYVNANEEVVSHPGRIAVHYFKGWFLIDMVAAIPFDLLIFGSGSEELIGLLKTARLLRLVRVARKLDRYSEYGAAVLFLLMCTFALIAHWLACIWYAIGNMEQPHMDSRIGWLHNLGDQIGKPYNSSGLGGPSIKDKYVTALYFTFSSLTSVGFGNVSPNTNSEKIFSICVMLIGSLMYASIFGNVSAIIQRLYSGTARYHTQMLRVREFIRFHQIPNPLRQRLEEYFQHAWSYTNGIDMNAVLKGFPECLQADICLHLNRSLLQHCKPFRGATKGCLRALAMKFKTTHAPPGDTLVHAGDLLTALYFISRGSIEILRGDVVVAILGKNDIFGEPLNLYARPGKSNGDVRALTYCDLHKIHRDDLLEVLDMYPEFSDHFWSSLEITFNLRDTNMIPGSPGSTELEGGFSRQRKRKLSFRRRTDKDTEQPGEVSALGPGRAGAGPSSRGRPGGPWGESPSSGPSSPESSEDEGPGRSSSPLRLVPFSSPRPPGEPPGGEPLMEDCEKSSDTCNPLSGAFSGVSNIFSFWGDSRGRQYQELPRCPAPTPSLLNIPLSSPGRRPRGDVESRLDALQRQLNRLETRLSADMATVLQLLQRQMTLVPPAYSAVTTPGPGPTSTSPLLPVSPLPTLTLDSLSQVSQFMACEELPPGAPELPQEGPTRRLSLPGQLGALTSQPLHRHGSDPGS
Assay: primary screen, population patch clamp on CHO cells stably expressing hERG; higher = less effect of the substance
Description: Briefly, Chinese hamster ovary (CHO) cells stably expressing the hERG channel were dislodged from tissue culture flasks and dispensed into PPC plates. […] During the recording, background leak currents were estimated by a 100 ms step to -80 mV from an initial holding potential of -70 mV and subtracted from the subsequent current measurement. The campaign was conducted in two phases using slight differences in recording protocol. […]
Among all 310,000 compounds or so, about 14,000 (4.5%) showed an effect of 50% or more. The effect is printed as a negative number. The sample as a whole holds a higher share of strong results than the screen did.
Assign hERG current change (%, negative = inhibition) at 10uM to each entry below.
Answer format: numeric, % implied, no suffix.

Exercise: Item `COC(=O)c1ccc(NC(=O)CSc2nnc(C3CC3)n2C)cc1` with human ether-à-go-go-related gene (hERG) potassium channel (human) - hERG current change (%, negative = inhibition) at 10uM?
Key: -4.59

Exercise: Item COc1ccc(NC(=O)CCN2CC(C)OC(C)C2)c(OC)c1.Cl (stereo not shown) with human ether-à-go-go-related gene (hERG) potassium channel (human) - hERG current change (%, negative = inhibition) at 10uM?
Key: 13.2

Exercise: Item `Cc1cc(C)nc(NC(N)=NCCc2c[nH]c3ccccc23)n1` with human ether-à-go-go-related gene (hERG) potassium channel (human) - hERG current change (%, negative = inhibition) at 10uM?
Key: 11.6

Exercise: Item `C/C(N)=C(/C#N)C(=O)COC(=O)C1CCN(C(=O)c2ccc(Cl)cc2)CC1` with human ether-à-go-go-related gene (hERG) potassium channel (human) - hERG current change (%, negative = inhibition) at 10uM?
Key: -14.3

Exercise: Item `O=C(NCC1CC1)c1onc(CSc2ccc(F)cc2)c1C(=O)NCC1CC1` with human ether-à-go-go-related gene (hERG) potassium channel (human) - hERG current change (%, negative = inhibition) at 10uM?
Key: -51.6

Exercise: Item `Cc1ccc(CN=C(N)Nc2nc(C)cc(C)n2)cc1.Cl` with human ether-à-go-go-related gene (hERG) potassium channel (human) - hERG current change (%, negative = inhibition) at 10uM?
Key: -76.1

Exercise: Item `Cc1cc(C)nc(/N=C(\N)Nc2ccc(CC(=O)OC(C)C)cc2)n1` with human ether-à-go-go-related gene (hERG) potassium channel (human) - hERG current change (%, negative = inhibition) at 10uM?
Key: -67.6

Exercise: Item `Cc1ccc(Cl)cc1Nc1nc(-c2sc(NC(=O)c3ccco3)nc2C)cs1` with human ether-à-go-go-related gene (hERG) potassium channel (human) - hERG current change (%, negative = inhibition) at 10uM?
Key: 3.48

Exercise: Item `CCOC(=O)c1ccc(Nc2cc(C)nc3nc(C)nn23)cc1` with human ether-à-go-go-related gene (hERG) potassium channel (human) - hERG current change (%, negative = inhibition) at 10uM?
Key: -53

Exercise: Item `NC(=O)c1cc(S(=O)(=O)N2CCCC2)ccc1OCCOc1ccccc1` with human ether-à-go-go-related gene (hERG) potassium channel (human) - hERG current change (%, negative = inhibition) at 10uM?
Key: 2.15

Exercise: Item `Cc1cc(NC(=O)c2cc(-c3ccco3)on2)n(-c2ccccc2)n1` with human ether-à-go-go-related gene (hERG) potassium channel (human) - hERG current change (%, negative = inhibition) at 10uM?
Key: -0.313

Exercise: Item `CCCNC(=O)c1onc(CSc2nc3ccccc3[nH]2)c1C(=O)NCCC` with human ether-à-go-go-related gene (hERG) potassium channel (human) - hERG current change (%, negative = inhibition) at 10uM?
Key: -35.7

Exercise: Item `Cc1cc(C)nc(Sc2nc(Nc3ccccc3)nc(Sc3nc(C)cc(C)n3)n2)n1` with human ether-à-go-go-related gene (hERG) potassium channel (human) - hERG current change (%, negative = inhibition) at 10uM?
Key: -4.94

Exercise: Item CN(C)S(=O)(=O)c1cccc(NC(=O)C2Cc3ccccc3CN2C(=O)c2ccccc2)c1 (stereo not shown) with human ether-à-go-go-related gene (hERG) potassium channel (human) - hERG current change (%, negative = inhibition) at 10uM?
Key: 4.2

Exercise: Item `O=C(COc1ccc(Cl)cc1)Nc1ccc(NC(=O)c2ccco2)cc1` with human ether-à-go-go-related gene (hERG) potassium channel (human) - hERG current change (%, negative = inhibition) at 10uM?
Key: 13.4

Exercise: Item O=C(COC(=O)C1CCN(C(=O)c2ccc(Cl)cc2)CC1)NC1CCS(=O)(=O)C1 (stereo not shown) with human ether-à-go-go-related gene (hERG) potassium channel (human) - hERG current change (%, negative = inhibition) at 10uM?
Key: 26.9

Exercise: Item `Cc1ccc(S(=O)(=O)NCCSCc2ccco2)cc1` with human ether-à-go-go-related gene (hERG) potassium channel (human) - hERG current change (%, negative = inhibition) at 10uM?
Key: -4.42

Exercise: Item Clc1ccc(CN(CC2CCCO2)C(c2cccs2)c2nnnn2C2CCCC2)cc1 (stereo not shown) with human ether-à-go-go-related gene (hERG) potassium channel (human) - hERG current change (%, negative = inhibition) at 10uM?
Key: 3.97

Exercise: Item `O=C(NCC1CC1)c1onc(CSc2ccncc2)c1C(=O)NCC1CC1` with human ether-à-go-go-related gene (hERG) potassium channel (human) - hERG current change (%, negative = inhibition) at 10uM?
Key: -11.9

Exercise: Item `CN(C)c1nc(Nc2ccccc2)nc(N(C)C)n1` with human ether-à-go-go-related gene (hERG) potassium channel (human) - hERG current change (%, negative = inhibition) at 10uM?
Key: 8.3

Exercise: Item `CC(=O)Nc1ccc(N/C(N)=N/c2nc(C)cc(C)n2)cc1` with human ether-à-go-go-related gene (hERG) potassium channel (human) - hERG current change (%, negative = inhibition) at 10uM?
Key: 14

Exercise: Item `CCOC(=O)c1ccc(Nc2cc(C)nc(C)c2C(=O)OCC)cc1.Cl` with human ether-à-go-go-related gene (hERG) potassium channel (human) - hERG current change (%, negative = inhibition) at 10uM?
Key: -62.6

Exercise: Item `CCCNC(=O)c1onc(CSc2ccc(Cl)cc2)c1C(=O)NCC1CC1` with human ether-à-go-go-related gene (hERG) potassium channel (human) - hERG current change (%, negative = inhibition) at 10uM?
Key: -8.67

Exercise: Item `Cc1cc(C)cc(N/C(N)=N/c2nc(C)cc(C)n2)c1` with human ether-à-go-go-related gene (hERG) potassium channel (human) - hERG current change (%, negative = inhibition) at 10uM?
Key: -50

Exercise: Item `CCCNC(=O)c1onc(CSc2ccc(F)cc2)c1C(=O)NCCC` with human ether-à-go-go-related gene (hERG) potassium channel (human) - hERG current change (%, negative = inhibition) at 10uM?
Key: 5.35

Exercise: Item `Cc1ccc(N/C(N)=N/c2nc(C)cc(C)n2)cc1` with human ether-à-go-go-related gene (hERG) potassium channel (human) - hERG current change (%, negative = inhibition) at 10uM?
Key: -68.7

Exercise: Item `CC(=O)NS(=O)(=O)c1ccc(N/C(N)=N/c2nc(C)cc(C)n2)cc1` with human ether-à-go-go-related gene (hERG) potassium channel (human) - hERG current change (%, negative = inhibition) at 10uM?
Key: 13.3

Exercise: Item `O=C(COC(=O)C1CCN(C(=O)c2ccc(Cl)cc2)CC1)Nc1ccccc1F` with human ether-à-go-go-related gene (hERG) potassium channel (human) - hERG current change (%, negative = inhibition) at 10uM?
Key: -56.9

Exercise: Item `O=C(NCc1ccccc1)c1onc(CSc2ccccc2)c1C(=O)NCC1CC1` with human ether-à-go-go-related gene (hERG) potassium channel (human) - hERG current change (%, negative = inhibition) at 10uM?
Key: -33.4

Exercise: Item `Cc1cc(N(C)C)nc(Nc2ccccc2)n1` with human ether-à-go-go-related gene (hERG) potassium channel (human) - hERG current change (%, negative = inhibition) at 10uM?
Key: -56.8

Exercise: Item `COCCNC(=O)c1onc(CSc2nc3ccccc3[nH]2)c1C(=O)NCCOC` with human ether-à-go-go-related gene (hERG) potassium channel (human) - hERG current change (%, negative = inhibition) at 10uM?
Key: -14.3

Exercise: Item `Cc1cc(NC(=O)COC(=O)C2CCN(C(=O)c3ccc(Cl)cc3)CC2)no1` with human ether-à-go-go-related gene (hERG) potassium channel (human) - hERG current change (%, negative = inhibition) at 10uM?
Key: -19.2

Exercise: Item `COc1ccc(C(=O)c2oc3ccccc3c2NC(C)=O)cc1` with human ether-à-go-go-related gene (hERG) potassium channel (human) - hERG current change (%, negative = inhibition) at 10uM?
Key: 0.829

Exercise: Item `O=C(NNC(=O)c1cc(-c2ccco2)nc2ccccc12)c1ccccc1` with human ether-à-go-go-related gene (hERG) potassium channel (human) - hERG current change (%, negative = inhibition) at 10uM?
Key: -3.05

Exercise: Item `O=C(COC(=O)C1CCN(C(=O)c2ccc(Cl)cc2)CC1)c1ccco1` with human ether-à-go-go-related gene (hERG) potassium channel (human) - hERG current change (%, negative = inhibition) at 10uM?
Key: -26.2

Exercise: Item `Cc1ccc(N=C(N)N=C(N)N)cc1` with human ether-à-go-go-related gene (hERG) potassium channel (human) - hERG current change (%, negative = inhibition) at 10uM?
Key: 16.9

Exercise: Item `CCCCn1c(SCC(=O)Nc2cc(NC(=O)c3ccco3)ccc2C)nc2ccccc2c1=O` with human ether-à-go-go-related gene (hERG) potassium channel (human) - hERG current change (%, negative = inhibition) at 10uM?
Key: -8.62

Exercise: Item `O=C(NCCCN1CCOCC1)c1onc(CSc2ccccc2)c1C(=O)NCCCN1CCOCC1` with human ether-à-go-go-related gene (hERG) potassium channel (human) - hERG current change (%, negative = inhibition) at 10uM?
Key: 4.97

Exercise: Item COc1cccc(C(=O)C2=NN(C(C)=O)CC2c2ccco2)c1 (stereo not shown) with human ether-à-go-go-related gene (hERG) potassium channel (human) - hERG current change (%, negative = inhibition) at 10uM?
Key: -15.8

Exercise: Item O=C(OCC1OC(n2cc(Br)c(=O)[nH]c2=O)C(Br)C1O)c1ccccc1 (stereo not shown) with human ether-à-go-go-related gene (hERG) potassium channel (human) - hERG current change (%, negative = inhibition) at 10uM?
Key: 8.3

Numbers sourced from paper PMC4336329.
